# SYSTEM NAME: T1, human CD8 alpha (CD8A) on primary human CD8+ T cells (human, UniProt P01732 22-235)
# T1 construct: whole, on cells; also called hCD8A
# T1 sequence (P01732 22-235): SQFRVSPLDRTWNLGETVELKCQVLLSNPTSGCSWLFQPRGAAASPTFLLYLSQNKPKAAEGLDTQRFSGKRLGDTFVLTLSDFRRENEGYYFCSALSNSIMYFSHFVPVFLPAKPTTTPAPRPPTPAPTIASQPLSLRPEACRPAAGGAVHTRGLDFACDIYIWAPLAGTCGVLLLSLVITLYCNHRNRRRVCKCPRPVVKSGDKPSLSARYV
# TEST NAME: flow cytometry, human CD8+ T cells
Recorded Human T-cell Binding 0.2 uM (MFI) values for a group of binders are listed next.
Express it in MFI; write the number only.

Fill in the blank: the reported Human T-cell Binding 0.2 uM (MFI) of P283GR7P1367_G8 (designed binder, FN3 domain) LPAPKNLVVSRVTEDSARLSWTAPDAAFDSFYIAYPEYVWGGEATSLGEAIVLTVPGSERSYDLTGLKPGTEYFVVITGVKGGLGSYPLSAIFTT is ____.
450

What about this binder? P283BR9P1363_G7 (designed binder, FN3 domain) LPAPKNLVVSRVTEDSARLSWSAKKFPRHFDSFLIQYQESEKVGEAIVLTVPGSERSYDLTGLKPGTEYTVSIYGVDVKWEGNRPVASNPLSAIFTT
2340
